In this section we review reported BI values for a set of compounds.
# SYSTEM_UNDER_TEST: MAGI2-5 (Homo sapiens, UniProt Q86UL8)
# Sequence (Q86UL8 whole entry): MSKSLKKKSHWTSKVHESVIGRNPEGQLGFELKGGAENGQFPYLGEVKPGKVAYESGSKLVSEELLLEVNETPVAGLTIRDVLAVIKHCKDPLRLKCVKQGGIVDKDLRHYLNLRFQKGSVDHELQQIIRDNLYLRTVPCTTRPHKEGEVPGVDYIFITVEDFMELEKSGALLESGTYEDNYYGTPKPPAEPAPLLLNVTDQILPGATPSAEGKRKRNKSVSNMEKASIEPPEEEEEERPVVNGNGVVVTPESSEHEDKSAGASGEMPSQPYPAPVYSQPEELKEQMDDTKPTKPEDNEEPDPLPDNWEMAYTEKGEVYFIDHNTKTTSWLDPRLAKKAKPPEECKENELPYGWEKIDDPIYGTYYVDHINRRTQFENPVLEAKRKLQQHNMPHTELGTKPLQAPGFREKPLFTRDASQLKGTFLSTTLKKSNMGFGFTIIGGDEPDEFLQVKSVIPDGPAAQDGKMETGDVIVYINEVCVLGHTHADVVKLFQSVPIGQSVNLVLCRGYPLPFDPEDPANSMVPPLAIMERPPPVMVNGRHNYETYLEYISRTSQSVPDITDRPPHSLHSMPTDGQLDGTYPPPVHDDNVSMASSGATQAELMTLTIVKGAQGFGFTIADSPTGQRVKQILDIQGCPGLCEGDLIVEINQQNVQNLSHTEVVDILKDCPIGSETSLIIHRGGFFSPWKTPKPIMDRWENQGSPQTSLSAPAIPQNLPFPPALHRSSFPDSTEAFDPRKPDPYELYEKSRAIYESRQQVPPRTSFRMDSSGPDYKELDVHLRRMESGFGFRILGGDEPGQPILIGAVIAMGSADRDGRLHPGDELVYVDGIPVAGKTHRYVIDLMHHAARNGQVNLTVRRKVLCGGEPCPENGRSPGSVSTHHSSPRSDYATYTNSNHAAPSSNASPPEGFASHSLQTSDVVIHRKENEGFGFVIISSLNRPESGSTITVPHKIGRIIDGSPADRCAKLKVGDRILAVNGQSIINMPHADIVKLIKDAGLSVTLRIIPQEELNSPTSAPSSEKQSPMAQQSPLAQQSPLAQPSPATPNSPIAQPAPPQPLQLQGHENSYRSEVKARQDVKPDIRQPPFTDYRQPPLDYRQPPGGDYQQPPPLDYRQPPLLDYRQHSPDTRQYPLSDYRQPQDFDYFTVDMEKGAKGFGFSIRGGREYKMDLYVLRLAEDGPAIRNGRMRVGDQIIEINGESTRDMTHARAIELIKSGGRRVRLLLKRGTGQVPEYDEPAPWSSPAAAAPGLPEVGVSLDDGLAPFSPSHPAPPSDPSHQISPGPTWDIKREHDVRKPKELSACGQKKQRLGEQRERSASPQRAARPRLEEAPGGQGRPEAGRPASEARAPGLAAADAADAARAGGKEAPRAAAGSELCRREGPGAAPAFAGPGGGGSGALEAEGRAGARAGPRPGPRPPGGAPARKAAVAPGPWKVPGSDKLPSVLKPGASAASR
# ASSAY_NOTES: Holdup assay, MAGI2-5
# Type: binding
*1 amine or outer side, *2 acyl side, *3 side chain or, on linkers, in order; H or OH if unused. Where a SMILES comes first, the peptide text is derived from it. The star is where a group is joined. X1 = O=C(CCCC[C@@H]1SC[C@@H]2NC(=O)N[C@@H]21)NCCCOCCOCCOCCCN*; Suc = O=C(CCC(=O)[*:2])[*:1]
Keep the answer to the number alone.

Worked cases, BI given:
compound="CC[C@H](C)[C@H](NC(=O)[C@H](CCC(N)=O)NC(=O)[C@@H](NC(=O)[C@H](Cc1c[nH]cn1)NC(=O)[C@H](CCC(N)=O)NC(=O)[C@H](CC(=O)O)NC(=O)[C@H](CCC(=O)O)NC(=O)[C@H](CC(=O)O)NC(=O)CCC(=O)NCCCOCCOCCOCCCNC(=O)CCCC[C@@H]1SC[C@@H]2NC(=O)N[C@@H]21)[C@@H](C)O)C(=O)N[C@H](C(=O)N[C@@H](CCCCN)C(=O)N[C@H](C(=O)O)C(C)C)[C@@H](C)O [PTEN_11]" parameter_measured=BI recorded_measurement=0.214
compound="CC[C@H](C)[C@H](NC(=O)[C@H](CCC(N)=O)NC(=O)[C@@H](NC(=O)[C@H](Cc1c[nH]cn1)NC(=O)[C@H](CCC(N)=O)NC(=O)[C@H](CC(=O)O)NC(=O)[C@H](CCC(=O)O)NC(=O)[C@H](CC(=O)O)NC(=O)[C@H](Cc1ccccc1)NC(=O)[C@@H]1CCCN1C(=O)CCC(=O)NCCCOCCOCCOCCCNC(=O)CCCC[C@@H]1SC[C@@H]2NC(=O)N[C@@H]21)[C@@H](C)O)C(=O)N[C@H](C(=O)N[C@@H](CCCCN)C(=O)N[C@H](C(=O)O)C(C)C)[C@@H](C)O [PTEN_13] ({X1-Suc}-PFDEDQHTQITKV-OH)" parameter_measured=BI recorded_measurement=0.046

Exercise: Determine from records and report BI for CC[C@H](C)[C@H](NC(=O)[C@H](CCC(N)=O)NC(=O)[C@@H](NC(=O)[C@H](Cc1c[nH]cn1)NC(=O)[C@H](CCC(N)=O)NC(=O)[C@H](CC(=O)O)NC(=O)[C@H](CCC(=O)O)NC(=O)[C@H](CC(=O)O)NC(=O)CCC(=O)NCCCOCCOCCOCCCNC(=O)CCCC[C@@H]1SC[C@@H]2NC(=O)N[C@@H]21)[C@@H](C)O)C(=O)N[C@H](C(=O)N[C@@H](CCCNC(=N)N)C(=O)N[C@H](C(=O)O)C(C)C)[C@@H](C)O [PTEN_KR] ({X1-Suc}-DEDQHTQITRV-OH)
Key: -0.074
